- Assayed target: human CB1 receptor (Homo sapiens)
- Construct: expressed in transfected cells; host or cells: HEK293
- Sequence (P21554 whole entry): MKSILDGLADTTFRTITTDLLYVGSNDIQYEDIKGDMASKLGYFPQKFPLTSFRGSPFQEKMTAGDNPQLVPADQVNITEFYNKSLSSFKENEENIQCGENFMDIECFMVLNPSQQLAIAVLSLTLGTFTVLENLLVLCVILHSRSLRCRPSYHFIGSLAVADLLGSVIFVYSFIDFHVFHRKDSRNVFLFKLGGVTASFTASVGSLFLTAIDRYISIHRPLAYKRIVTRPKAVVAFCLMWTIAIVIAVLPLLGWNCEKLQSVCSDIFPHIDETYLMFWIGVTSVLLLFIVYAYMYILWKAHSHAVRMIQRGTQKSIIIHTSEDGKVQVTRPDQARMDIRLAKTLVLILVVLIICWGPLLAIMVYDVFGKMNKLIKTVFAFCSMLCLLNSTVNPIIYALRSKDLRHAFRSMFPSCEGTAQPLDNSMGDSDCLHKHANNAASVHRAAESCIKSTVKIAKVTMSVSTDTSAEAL
- Assay text: bioSensAll GAPL-Gi2 BRET biosensor assay in HEK293 cells transfected with hCB1; test compound added before EC75-80 of agonist CP55,940 (0.1 nM)
- Format: cell-based
- Measurement context: vs CP55,940 0.1 nM (EC75-80), read-out: CB1 wt Gi2 IC50
pIC50: −log10 of the molar value.
Readout: pIC50

[
  {
    "Smiles string": "C[C@@H](O)COc1nc(N2CCC(C)(C(N)=O)CC2)c2nc(-c3ccccc3Cl)n(-c3ccc(Cl)cc3)c2n1",
    "Assayed target": "human CB1 receptor (Homo sapiens)",
    "pIC50": 9.06
  },
  {
    "Smiles string": "Cc1ncccc1-c1nc2c(N3CCC(C)(C(N)=O)CC3)nc(OCC(C)(C)O)nc2n1-c1ccc(Cl)cc1",
    "Assayed target": "human CB1 receptor (Homo sapiens)",
    "pIC50": 7.31
  },
  {
    "Smiles string": "CC(C)Oc1nc(OC[C@H](C)O)nc2c1nc(-c1ccccc1Cl)n2-c1ccc(Cl)cc1",
    "Assayed target": "human CB1 receptor (Homo sapiens)",
    "pIC50": 8.82
  }
]

(a) CN(CCO)c1nc(N2CCC(C)(C(N)=O)CC2)c2nc(-c3ccccc3)n(-c3ccc(Cl)cc3)c2n1
(b) Cc1cn(C)c(-c2nc3c(N4CCC(C)(C(N)=O)CC4)nc(N(C)CCO)nc3n2-c2ccc(Cl)cc2)n1
(c) CC(C)(O)COc1nc(N2CCC(C)(C(N)=O)CC2)c2nc(-c3ccc(C#N)cc3)n(-c3ccc(Cl)cc3)c2n1
Challenge: Reorder the items by pIC50, least to greatest. State the ranking by listing the labels in the requested order.
Response given: b, c, a
